experiment: solvent given as SMILES; conditions: in ClCCl
What emission maximum was measured for each of the following?

Here's what some known entries look like.
| molecule | emission maximum |
| --- | --- |
| O=Cc1ccc2c(c1)c1ccccc1n2-c1ccc(-c2ccc(-n3c4ccccc4c4cc(C=O)ccc43)cc2)cc1 | 405 nm |
| CCN(CC)c1ccc2cc(/C=C/C(=C(C#N)C#N)c3ccc(N(c4ccccc4)c4ccccc4)cc3)c(=O)oc2c1 | 581 nm |
| c1ccc(N(c2ccccc2)c2ccc(-c3ccc4c(c3)C3(c5ccccc5Sc5ccccc53)c3cc(-c5ccc(N(c6ccccc6)c6ccccc6)cc5)ccc3-4)cc2)cc1 | 457 nm |

Batch request: emission maximum per item, same order as input.
1. CCCCCCn1c2cc(C=O)sc2c2sc3c(sc4c5sc(C=O)cc5n(CCCCCC)c43)c21
2. F[B-]1(F)n2c(Cl)c(Cl)c(Br)c2C(Cl)=C2C(Br)=C(Cl)C(Cl)=[N+]21
3. CC(C)(C)c1ccc2c(c1)[nH]c1c3[nH]c4cc(C(C)(C)C)ccc4c3c3nsnc3c21
4. Oc1c(-c2ccco2)cccc1-c1nc2ccccc2s1
5. COC(=O)C1=C(C(=O)OC)C2(c3cc([N+](=O)[O-])ccc3-c3ccc([N+](=O)[O-])cc32)C2(/C=C/c3ccccc3)c3cc(OC)c(OC)cc3CCN12 (stereo not drawn)

496 nm
560 nm
502 nm
577 nm
495 nm
